Source: ChEMBL document CHEMBL1140324

METHOD DESCRIPTION: Plasma half life (10 mg/kg, p.o.) in rat
Type: ADME, organism-based
CONDITION SUMMARY: po
PROPERTY MEASURED: half-life (h)
Report as a plain number; the unit h is understood.

C[C@H](O)[C@@H](CCc1cccc2oc(-c3ccc(Cl)cc3)nc12)n1cnc(C(N)=O)c1; 1.87

[Q] # return recorded half-life for entry `Cn1cc(CC[C@H](CO)n2cnc(C(N)=O)c2)c2cc(OCCCc3ccc(Cl)cc3)ccc21`
[A] 1.09

[Q] Provide half-life value for the following molecule: `C[C@H](O)[C@@H](CCc1cccc2nc(-c3ccc(Cl)cc3)oc12)n1cnc(C(N)=O)c1`
[A] 3.45

###

METHOD DESCRIPTION: Oral bioavailability in dog (dose 10 mg/kg)
Type: ADME, organism-based, Canis lupus familiaris
CONDITION SUMMARY: in vivo
The entries below are paired with their reported bioavailability.
Lab book: enter the figure in %, no units written.

C[C@H](O)[C@@H](CCc1cccc2oc(-c3ccc(Cl)cc3)nc12)n1cnc(C(N)=O)c1; 81

Next item in the queue.
[Q] For the molecule `C[C@H](O)[C@@H](CCc1cccc2nc(-c3ccc(Cl)cc3)oc12)n1cnc(C(N)=O)c1` , report bioavailability.
[A] 50

###

METHOD DESCRIPTION: Area under blood-concentration time curve after 10 mg/kg peroral dose in rat
Type: ADME, organism-based
Parameters: dose 10 mg/kg, route oral
CONDITION SUMMARY: in vivo, po
PROPERTY MEASURED: log10 of AUC (log10 of the value in ng·h/mL)
Annotation: log10 of AUC, ng·h/mL basis.

Some solved cases for reference:
C[C@H](O)[C@@H](CCc1cccc2nc(-c3ccc(Cl)cc3)oc12)n1cnc(C(N)=O)c1; 4.47
C[C@H](O)[C@@H](CCc1cccc2oc(-c3ccc(Cl)cc3)nc12)n1cnc(C(N)=O)c1; 4.75
C[C@H](O)[C@@H](CCc1cccc(Cl)c1Cl)n1cnc(C(N)=O)c1; 3.32

[Q] Supply reported log10 of AUC belonging to this molecule: `C[C@H](O)[C@@H](CCc1cccc2ccccc12)n1cnc(C(N)=O)c1`
[A] 3.14

[Q] In one line, give reported log10 of AUC of the entry `Cn1cc(CC[C@H](CO)n2cnc(C(N)=O)c2)c2cc(OCCCc3ccc(Cl)cc3)ccc21` .
[A] 2.41

###

METHOD DESCRIPTION: In vitro clearance in human liver microsomes
Assay type: ADME, Microsome
CONDITION SUMMARY: read-out: Clearance
PROPERTY MEASURED: CLint scaled (mL/min/kg)
All answers are understood in mL/min/kg, so give the number only.

C[C@H](O)[C@@H](CCc1cccc2oc(-c3ccc(Cl)cc3)nc12)n1cnc(C(N)=O)c1; 12

Okay, next one:
[Q] Dear colleague, please send me the reported CLint scaled for `C[C@H](O)[C@@H](CCc1cccc2nc(-c3ccc(Cl)cc3)oc12)n1cnc(C(N)=O)c1` when you can.
[A] 34

###

ASSAYED SYSTEM: Adenosine deaminase (Homo sapiens, UniProt P00813)
Sequence (P00813 whole entry): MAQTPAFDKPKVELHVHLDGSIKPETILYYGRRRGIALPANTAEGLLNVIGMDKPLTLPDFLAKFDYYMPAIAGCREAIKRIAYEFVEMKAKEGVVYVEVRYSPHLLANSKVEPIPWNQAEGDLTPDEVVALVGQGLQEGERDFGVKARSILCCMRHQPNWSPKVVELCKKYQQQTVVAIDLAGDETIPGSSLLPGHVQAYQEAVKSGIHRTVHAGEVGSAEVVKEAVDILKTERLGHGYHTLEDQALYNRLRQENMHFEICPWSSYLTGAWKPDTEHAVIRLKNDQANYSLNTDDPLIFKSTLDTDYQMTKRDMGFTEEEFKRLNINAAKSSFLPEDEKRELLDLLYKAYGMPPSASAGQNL
PROPERTY MEASURED: pIC50
Kindly note that pIC50 refers to -log10 of the concentration in mol/L and answer with the value alone.

Example entries and their recorded answers appear below.
NC(=O)c1cn(C(CO)CCc2cccc3ccccc23)cn1 (stereo not given); 6.24
C[C@H](O)[C@@H](CCc1cccc2oc(-c3ccc(Cl)cc3)nc12)n1cnc(C(N)=O)c1; 8.06
C[C@H](O)[C@@H](CCc1cccc(Cl)c1Cl)n1cnc(C(N)=O)c1; 7.82
NC(N)=Nc1nc(-c2ccc(CNc3nc4ccccc4[nH]3)s2)cs1; 6.15

Kindly consider the entry below.
[Q] // fetch pIC50 given entry `C[C@H](O)[C@@H](CCc1cccc2ccccc12)n1cnc(C(N)=O)c1`
[A] 7.80
